targetDesc: T1, extracellular domain of hCD4 fused with a histidine tag (hCD4-HisTag) (human, UniProt P01730 26-396)
T1 construct: extracellular domain; also called human CD4-HisTag; not shown: histidine tag
experimentNotes: Biacore T200 SPR, antibody captured on Protein A, CD4-HisTag analyte, 1:1 fit, 25 C
Here the recorded kon is given for each entry.
metricName: kon (M⁻¹ s⁻¹)

binder	valueReported
2B6 humanized anti-CD4 antibody (antibody, V domains shown, Expressed as heavy and light chains in Freestyle 293 cells; also called Humanized 2B6) VH: QVQLQESGPGLVKPSETLSLTCTVSGDSITSGYWNWIRQPPGKGLEFLGYISFADTTNYNPSLKSRVTISRDTSKNQFSLKLSSVTAADTAVYYCARDDYGYYAMDYWGQGTLVTVSS VL: DIQLTQSPSSLSASVGDRVTITCRASQDIDNYLNWYQQKPGKAPKLLIYYTSRLHSGVPSRFSGSGSGTDYTLTISSLQPEDFATYYCQQGNTLPTFGQGTKLEIK	520000
Chimeric 11E12 anti-CD4 antibody (antibody, human IgG1, kappa, V domains shown) VH: EVQLEESGPSLVKPSQTLSLTCSVTGDSITSSYWNWIRKFPGHKLEFLGYISFADTTNYNPSLKSRISITRDTSKNQFDLQLKSVTTEDTATYYCARDDFGYYAMDYWGQGISVTVSS VL: DIYVTQTTSSLSASLGDRVTIICRASQDINNYLNWYQLKPDGTLKLLIYYTSRLHSGVPSRFGGSGSGTEYSLTISNLEQEDVATYFCQQGNTLPTFGAGTKLELKR	987000
29B7 humanized anti-CD4 antibody (antibody, V domains shown, Expressed as heavy and light chains in Freestyle 293 cells; The description says only that humanized antibodies may have human IgG1 and human kappa constant regions; also called Humanized 29B7) VH: QVQLVQSGAEVKKPGASVKVSCKASGDSLNTHWMHWVRQAPGQRLEWIGYINPYTGSGEYSQKFKGRATLTADISASTAYMELSSLRSEDTAVYYCAYDSTGAMDYWGQGTLVTVSS VL: DIQMTQSPSSLSASVGDRVTITCKASQDINRYLSWFQQKPGKAPKTPIYRADRSVDGVPSRFSGSGSGQDYTLTISSLQPEDFATYYCQQYDEFPYTFGQGTKLEIK	1.03e+06
Chimeric MT412 anti-CD4 antibody (antibody, human IgG1, kappa, V domains shown) VH: QIQLVQSGPELKKPGETVKISCKASGYTFTDYSMHWVKQAPGKDLKWMGWINTETGEPTYADDFKGRFAFSLETSASTAYLQINNLKNEDTATYFCAREDYYGHDGFLYWGQGTLVTVSS VL: DIVMTQSHKFMSTSVGDRVSITCKASQDVVTTVAWYQQKPGQSPKLLIYWASLRHTGVPDRFTGSGSGTDFTLTISNVQFEDLADYFCQQYSSYPYTFGGGTKLEIKR	586000
Chimeric 2B6 anti-CD4 antibody (antibody, human IgG1, kappa, V domains shown) VH: EVQLQESGPSLVKPSQTLSLTCSVTGDSITSGYWNWIRKFPGHKLEFLGYISFADTTNYNPSLKSRVSITRDTSKNQFDLQLKSVTTEDTATYHCARDDYGYYAMDYWGQGISVTVSS VL: DIHLTQTTSSLSASLGDRVTIICRASQDIDNYLNWYQLKPDGTLKLLIYYTSRLHSGVPSRFSGSGSGTEYSLTISNLEREDVATYFCQQGNTLPTFGAGTKLELKR	327000
